Target: UniProt P09619
Sequence (P09619 33-1106, species assumed): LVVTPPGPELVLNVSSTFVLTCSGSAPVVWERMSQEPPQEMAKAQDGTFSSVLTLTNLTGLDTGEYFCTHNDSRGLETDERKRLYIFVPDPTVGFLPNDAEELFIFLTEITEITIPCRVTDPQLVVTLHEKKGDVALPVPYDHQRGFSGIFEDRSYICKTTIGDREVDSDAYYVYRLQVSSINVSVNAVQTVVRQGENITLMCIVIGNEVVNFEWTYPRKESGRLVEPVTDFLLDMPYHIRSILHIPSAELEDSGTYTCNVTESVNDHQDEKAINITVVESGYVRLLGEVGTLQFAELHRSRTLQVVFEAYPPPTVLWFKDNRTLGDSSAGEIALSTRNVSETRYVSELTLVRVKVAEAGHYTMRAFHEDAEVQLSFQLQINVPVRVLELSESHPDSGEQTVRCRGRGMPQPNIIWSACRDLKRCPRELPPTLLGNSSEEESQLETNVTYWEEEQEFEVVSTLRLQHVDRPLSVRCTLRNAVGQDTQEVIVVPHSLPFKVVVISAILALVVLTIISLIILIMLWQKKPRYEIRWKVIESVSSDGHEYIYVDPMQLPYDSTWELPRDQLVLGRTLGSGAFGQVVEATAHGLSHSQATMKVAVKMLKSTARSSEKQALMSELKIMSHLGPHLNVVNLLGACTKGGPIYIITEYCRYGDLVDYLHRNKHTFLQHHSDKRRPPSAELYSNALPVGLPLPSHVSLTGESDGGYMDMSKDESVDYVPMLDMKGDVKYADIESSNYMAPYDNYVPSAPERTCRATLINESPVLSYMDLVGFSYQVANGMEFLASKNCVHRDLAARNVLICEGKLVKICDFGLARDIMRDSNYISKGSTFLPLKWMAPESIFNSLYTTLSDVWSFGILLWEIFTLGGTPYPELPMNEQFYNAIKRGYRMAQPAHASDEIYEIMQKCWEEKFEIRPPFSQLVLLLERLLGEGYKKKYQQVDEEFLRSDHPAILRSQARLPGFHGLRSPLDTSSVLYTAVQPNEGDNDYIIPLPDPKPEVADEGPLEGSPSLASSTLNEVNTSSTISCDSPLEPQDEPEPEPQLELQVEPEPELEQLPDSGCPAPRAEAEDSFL
Assay: PDGF-R ELISA
Type: cell-based
Reported PDGF Kinase %Inhibition is given for each of the following compounds.

{"molecule": "COc1c([N+](=O)[O-])cc(C=C2C(=O)Nc3c(Br)cc(Br)cc32)cc1C(C)(C)C", "experimental.target": "UniProt P09619", "PDGF Kinase %Inhibition [%]": 23.2}
{"molecule": "O=CN1CCN(c2ccc(C=C3C(=O)Nc4ccc(I)cc43)cc2)CC1", "experimental.target": "UniProt P09619", "PDGF Kinase %Inhibition [%]": 100.8}
{"molecule": "COc1cc(N(C)C)ccc1C=C1C(=O)Nc2ccc(I)cc21", "experimental.target": "UniProt P09619", "PDGF Kinase %Inhibition [%]": 9.4}
{"molecule": "Cc1c(Br)ccc2c1C(=Cc1cc(O)ccc1O)C(=O)N2", "experimental.target": "UniProt P09619", "PDGF Kinase %Inhibition [%]": 45.7}
{"molecule": "CCN(CC)c1ccc(C=C2C(=O)Nc3c(Br)cc(Br)cc32)c(O)c1", "experimental.target": "UniProt P09619", "PDGF Kinase %Inhibition [%]": 2.9}
{"molecule": "COc1cc(C)cc(O)c1C=C1C(=O)Nc2ccc(S(=O)(=O)Nc3ccc(C(F)(F)F)cc3)cc21", "experimental.target": "UniProt P09619", "PDGF Kinase %Inhibition [%]": 39.0}
{"molecule": "COc1cc(C=C2C(=O)Nc3ccc(S(=O)(=O)N4CCOCC4)cc32)cc(OC)c1OC", "experimental.target": "UniProt P09619", "PDGF Kinase %Inhibition [%]": 28.7}
{"molecule": "COc1cc(OC)c(OC)cc1C=C1C(=O)Nc2ccc(CCCl)cc21", "experimental.target": "UniProt P09619", "PDGF Kinase %Inhibition [%]": 44.0}
{"molecule": "Cc1cc(C=C2C(=O)Nc3ccc(I)cc32)cc(C)c1OCc1ccccc1", "experimental.target": "UniProt P09619", "PDGF Kinase %Inhibition [%]": 4.2}
